- Test system: PL-21
- assay procedure: CellTiterGlo viability, AML cell line
- Type: cell-based
- condition label: 72 h, single agent, 3 days
property measured: pIC50
Just the number, please; pIC50 means minus log10 of the concentration in mol/L.

compound	pIC50
CC1(C)CCC(CN2CCN(c3ccc(C(=O)NS(=O)(=O)c4ccc(NCC5CCOCC5)c([N+](=O)[O-])c4)c(Oc4cnc5[nH]ccc5c4)c3)CC2)=C(c2ccc(Cl)cc2)C1 [ABT-199, reference compound]	5.48

Field: next compound
pIC50 for Cl.O=C(c1cc(-c2cc3c(cc2C(=O)N2Cc4ccccc4C[C@H]2CN2CCOCC2)OCO3)n2c1CCCC2)N(c1ccccc1)c1ccc(O)cc1 [Compound 1, HCl] ?
5.56

----------
- System: CCRF-CEM
- assay procedure: CellTiterGlo viability, T-ALL cell line
- Assay type: cell-based
- condition label: single agent, 48 h
property measured: pIC50
Quick note: pIC50 means taking -log10 of the concentration in moles per liter.

Which pIC50 reading was recorded for the compound `COc1ccccc1-c1nccc(COc2ccccc2C[C@@H](Oc2ncnc3sc(-c4ccc(F)cc4)c(-c4ccc(OCCN5CCN(C)CC5)c(Cl)c4C)c23)C(=O)O)n1` ?
7.33

----------
- Test system: NAN1
- assay procedure: MTT cell viability assay, myeloma cell line
- Assay type: cell-based, human
- condition label: single agent, read-out: IC50
property measured: IC50 (nM)
Numeric only. Scale: nM

Form: Entry = Cc1c(-c2c(-c3ccc(F)o3)sc3ncnc(O[C@H](Cc4ccccc4OCc4ccnn4CC(F)(F)F)C(=O)O)c23)ccc(OCCN2CCN(C)CC2)c1Cl [Compound 2] | System = NAN1 | IC50 = ____
5.7

----------
- System: SBN
- assay procedure: MTT cell viability assay, myeloma cell line
- Type: cell-based, human
- condition label: Homo sapiens, single agent, read-out: IC50
property measured: IC50 (µM)
Answer with a number only, understood to be in µM.

I am curious: what IC50 value has been reported for Cl.O=C(c1cc(-c2cc3c(cc2C(=O)N2Cc4ccccc4C[C@H]2CN2CCOCC2)OCO3)n2c1CCCC2)N(c1ccccc1)c1ccc(O)cc1 [Compound 1, HCl] ?
21.3

----------
- Tested on: OPM2
- assay procedure: MTT cell viability assay, myeloma cell line
- Type: cell-based, human
- condition label: single agent, read-out: IC50
property measured: IC50 (nM)
State the answer as a number, implicitly in nM.

// lookup IC50 for Cc1c(-c2c(-c3ccc(F)o3)sc3ncnc(O[C@H](Cc4ccccc4OCc4ccnn4CC(F)(F)F)C(=O)O)c23)ccc(OCCN2CCN(C)CC2)c1Cl [Compound 2]
9.4

----------
- Tested on: SH-SY5Y
- assay procedure: CellTiterGlo viability, neuroblastoma cell line
- Type: cell-based
- condition label: Homo sapiens, 48 h, single agent, 2 days
property measured: IC50

# lookup: IC50 of Cl.O=C(c1cc(-c2cc3c(cc2C(=O)N2Cc4ccccc4C[C@H]2CN2CCOCC2)OCO3)n2c1CCCC2)N(c1ccccc1)c1ccc(O)cc1 [Compound 1, HCl]
> 3000 nM

----------
- Tested on: SU-DHL-8
- assay procedure: CellTiterGlo viability, DLBCL cell line
- Assay type: cell-based
- condition label: Homo sapiens, 48 h, single agent, 2 days, read-out: Abs IC50
property measured: IC50

// query IC50 value for entry Cl.O=C(c1cc(-c2cc3c(cc2C(=O)N2Cc4ccccc4C[C@H]2CN2CCOCC2)OCO3)n2c1CCCC2)N(c1ccccc1)c1ccc(O)cc1 [Compound 1, HCl]
≥ 10 µM

----------
- System: XG2
- assay procedure: MTT cell viability assay, myeloma cell line
- Type: cell-based, human
- condition label: Homo sapiens, single agent, read-out: IC50
- Experimental: Cell lines: Human myeloma cell lines (HMCLs) were derived from primary myeloma cells cultured in RPMI 1640 medium supplemented with 5% fetal calf serum from and 3 ng/mL recombinant IL-6 for IL-6 dependent cell lines. HMCLs are representative of phenotypic and genomic heterogeneity and the variability in patient's response to therapy. MTT assay: Cell viability is measured using MTT (3-(4,5-dimethylthiazol-2-yl)-2,5-diphenyltetrazolium bromide) colorimetric survival assay. […]
property measured: pIC50
Hey, just a heads up that pIC50 is the negative log base 10 of the concentration in molar.

Endpoint output: pIC50 of Cl.O=C(c1cc(-c2cc3c(cc2C(=O)N2Cc4ccccc4C[C@H]2CN2CCOCC2)OCO3)n2c1CCCC2)N(c1ccccc1)c1ccc(O)cc1 [Compound 1, HCl] . Value?
4.82

----------
- Tested on: MV4;11
- assay procedure: CellTiterGlo viability, AML cell line
- Assay type: cell-based
- condition label: Homo sapiens, 72 h, single agent, 3 days
property measured: IC50 (µM)
Give the number; µM is assumed, so skip it.

Which IC50 reading was recorded for the compound Cl.O=C(c1cc(-c2cc3c(cc2C(=O)N2Cc4ccccc4C[C@H]2CN2CCOCC2)OCO3)n2c1CCCC2)N(c1ccccc1)c1ccc(O)cc1 [Compound 1, HCl] ?
0.03

----------
- System: REC-1
- assay procedure: CellTiterGlo viability, Mantle Cell Lymphoma cell line
- Type: cell-based
- condition label: single agent, 2 days
property measured: IC50
# answer = value followed by unit

State the recorded IC50 for this entry: COc1ccccc1-c1nccc(COc2ccccc2C[C@@H](Oc2ncnc3sc(-c4ccc(F)cc4)c(-c4ccc(OCCN5CCN(C)CC5)c(Cl)c4C)c23)C(=O)O)n1 [Compound 3]
77 nM

----------
- Tested on: XG11
- assay procedure: MTT cell viability assay, myeloma cell line
- Type: cell-based, human
- condition label: single agent, read-out: IC50
- Experimental: Cell lines: Human myeloma cell lines (HMCLs) were derived from primary myeloma cells cultured in RPMI 1640 medium supplemented with 5% fetal calf serum from and 3 ng/mL recombinant IL-6 for IL-6 dependent cell lines. HMCLs are representative of phenotypic and genomic heterogeneity and the variability in patient's response to therapy. MTT assay: Cell viability is measured using MTT (3-(4,5-dimethylthiazol-2-yl)-2,5-diphenyltetrazolium bromide) colorimetric survival assay. […]
property measured: pIC50
When answering, recall that pIC50 equals minus log10 of the concentration in mol/L, and write that number alone.

So what does the record say about pIC50 for `Cc1c(-c2c(-c3ccc(F)o3)sc3ncnc(O[C@H](Cc4ccccc4OCc4ccnn4CC(F)(F)F)C(=O)O)c23)ccc(OCCN2CCN(C)CC2)c1Cl` ?
6.43

----------
- Test system: L363
- assay procedure: MTT cell viability assay, myeloma cell line
- Format: cell-based, human
- condition label: single agent, read-out: IC50
property measured: IC50 (nM)
Write the answer as a number in nM, unit excluded.

Could you share what IC50 was measured for Cc1c(-c2c(-c3ccc(F)o3)sc3ncnc(O[C@H](Cc4ccccc4OCc4ccnn4CC(F)(F)F)C(=O)O)c23)ccc(OCCN2CCN(C)CC2)c1Cl [Compound 2] , tested on L363?
7.6

----------
- System: NALM-6
- assay procedure: CellTiterGlo viability, B-ALL cell line
- Assay type: cell-based
- condition label: Homo sapiens; NALM-6; B-ALL; single agent; 72 h
property measured: IC50 (µM)
Could you give me the number in µM? Just the number is fine.

Please report the recorded IC50 for Cl.O=C(c1cc(-c2cc3c(cc2C(=O)N2Cc4ccccc4C[C@H]2CN2CCOCC2)OCO3)n2c1CCCC2)N(c1ccccc1)c1ccc(O)cc1 [Compound 1, HCl] .
3.63

----------
- Test system: NAN1
- assay procedure: MTT cell viability assay, myeloma cell line
- Assay type: cell-based, human
- condition label: Homo sapiens, single agent, read-out: IC50
property measured: IC50
Reply with the number and its unit after it.

What value of IC50 has been reported for the following compound? Cl.O=C(c1cc(-c2cc3c(cc2C(=O)N2Cc4ccccc4C[C@H]2CN2CCOCC2)OCO3)n2c1CCCC2)N(c1ccccc1)c1ccc(O)cc1 [Compound 1, HCl]
6.66 µM

----------
- Tested on: SU-DHL-10
- assay procedure: CellTiterGlo viability, DLBCL cell line
- Type: cell-based
- condition label: Homo sapiens, SU-DHL10, 48 h, single agent, 2 days, read-out: Abs IC50
property measured: IC50

Given Cl.O=C(c1cc(-c2cc3c(cc2C(=O)N2Cc4ccccc4C[C@H]2CN2CCOCC2)OCO3)n2c1CCCC2)N(c1ccccc1)c1ccc(O)cc1 [Compound 1, HCl] , state its recorded IC50.
≥ 10 µM

----------
- System: RS4;11
- assay procedure: CellTiterGlo viability, B-ALL cell line
- Assay type: cell-based
- condition label: Homo sapiens, single agent, 72 h
- Description: In addition, all media contained penicillin (100 IU/ml), streptomycin (100 μg/ml) and L-glutamine (2 mM). Cell lines were cultured at 37° C. in a humidified atmosphere containing 5% CO2 and expanded in T-150 flasks. In all cases cells were thawed from frozen stocks, expanded through ≥1 passage using appropriate dilutions, counted and assessed for viability using a CASY cell counter prior to plating 150 ul/well at the densities indicated in Table 9 into 96-well plates. […]
property measured: pIC50
pIC50 is a log-scale quantity: -log10 of the concentration expressed in molar.

Item under review: Cl.O=C(c1cc(-c2cc3c(cc2C(=O)N2Cc4ccccc4C[C@H]2CN2CCOCC2)OCO3)n2c1CCCC2)N(c1ccccc1)c1ccc(O)cc1 [Compound 1, HCl] . Reported pIC50?
7.70

Where these numbers come from: patent US20190240225A1
